Biological target: Mu-type opioid receptor (Homo sapiens) + Delta-type opioid receptor (Homo sapiens) (UniProt P35372+P41143)
Sequence (P35372 whole entry, looked up): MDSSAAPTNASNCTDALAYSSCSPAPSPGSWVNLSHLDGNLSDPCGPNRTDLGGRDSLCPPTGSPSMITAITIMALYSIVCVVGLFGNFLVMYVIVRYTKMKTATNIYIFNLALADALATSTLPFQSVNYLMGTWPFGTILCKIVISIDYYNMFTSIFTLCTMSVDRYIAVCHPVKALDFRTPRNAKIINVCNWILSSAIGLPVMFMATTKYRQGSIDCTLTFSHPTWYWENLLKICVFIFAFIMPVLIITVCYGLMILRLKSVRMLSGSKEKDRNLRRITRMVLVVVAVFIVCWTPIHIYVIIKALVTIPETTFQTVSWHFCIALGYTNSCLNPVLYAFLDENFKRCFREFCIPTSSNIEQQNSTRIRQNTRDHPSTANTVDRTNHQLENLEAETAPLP
Sequence (P41143 whole entry, looked up): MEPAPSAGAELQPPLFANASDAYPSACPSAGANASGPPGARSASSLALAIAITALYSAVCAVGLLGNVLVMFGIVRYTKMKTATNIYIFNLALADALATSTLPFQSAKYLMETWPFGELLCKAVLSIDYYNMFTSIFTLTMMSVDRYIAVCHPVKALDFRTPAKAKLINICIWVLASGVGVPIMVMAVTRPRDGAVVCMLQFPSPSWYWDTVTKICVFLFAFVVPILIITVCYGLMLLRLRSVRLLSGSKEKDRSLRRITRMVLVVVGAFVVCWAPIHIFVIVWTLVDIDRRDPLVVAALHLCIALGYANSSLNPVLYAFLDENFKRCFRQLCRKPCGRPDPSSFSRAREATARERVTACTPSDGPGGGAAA
Experiment: OPRM1-OPRD1 heterodimer agonist potency – cell-based, luminescence, dose response (AID 588407);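 note: potency of agonists raising the heterodimer signal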
Conditions: cells, MOR-DOR heterodimerization
Calls of active or inactive are those of the source. The rule behind the calls is not given here.
Outcomes you can answer with include only these: Y for active, N for inactive

Worked cases, answers included:
>  <MOLECULE>
CCC(=O)C(CCN1CCOCC1)(c1ccccc1)c1ccccc1

>  <CLASSIFICATION>
Y

$$$$
>  <MOLECULE>
Cc1cccc(OCCC(=O)NCC(c2ccccc2)N(C)C)c1 (centres undefined)

>  <CLASSIFICATION>
N

$$$$
>  <MOLECULE>
CN(C)C(CNC(=O)Cc1ccc(Br)cc1)c1ccccc1 (centres undefined)

>  <CLASSIFICATION>
Y

$$$$
>  <MOLECULE>
Cc1nc2nc(C)n(CCN3CCOCC3)c(=O)c2c(-c2cccc([N+](=O)[O-])c2)c1C(=O)CCCCCCCCCCN1CCC(c2ccccc2)(c2ccccc2)CC1

>  <CLASSIFICATION>
N

$$$$
>  <MOLECULE>
Cc1ccccc1N(CC(=O)N/N=C/c1ccc(F)cc1)C(=O)c1ccccc1

>  <CLASSIFICATION>
N

$$$$
>  <MOLECULE>
COc1ccc(C(C(=O)NC2CCCCC2)N(C(=O)Cc2c[nH]c3ccccc23)c2ccc(NC(C)=O)cc2)cc1OC (centres undefined)

>  <CLASSIFICATION>
N

$$$$
>  <MOLECULE>
OCC1(CCc2ccccc2)CCN(Cc2cccn2-c2cccnc2)CC1

>  <CLASSIFICATION>
Y

$$$$
>  <MOLECULE>
CN(C)CCCN(C(=O)c1ccc(S(=O)(=O)N2CCCCCC2)cc1)c1nc2c(F)cc(F)cc2s1

>  <CLASSIFICATION>
Y

$$$$

Please find the next molecule below.
Request: Which outcome was assigned to CCC1(C)CC(CCNCc2ccc(N(C)C)cc2)(c2ccc(F)cc2)CCO1 (centres undefined) in this test?
Response: Y
